Exercise: state measured DELFIA ELISA response (FU) for each of the binders provided.
- assayed_target: T1, L1 (DV1-GV4), soluble leucine zipper γδ TCR heterodimer of a delta variable 1 chain and a gamma variable 4 … (human)
- T1 construct: also called bt-L1; not shown: histidine tag/linker said to follow the zipper
- T1 sequence (main, as listed by the source, chain 1 of 2): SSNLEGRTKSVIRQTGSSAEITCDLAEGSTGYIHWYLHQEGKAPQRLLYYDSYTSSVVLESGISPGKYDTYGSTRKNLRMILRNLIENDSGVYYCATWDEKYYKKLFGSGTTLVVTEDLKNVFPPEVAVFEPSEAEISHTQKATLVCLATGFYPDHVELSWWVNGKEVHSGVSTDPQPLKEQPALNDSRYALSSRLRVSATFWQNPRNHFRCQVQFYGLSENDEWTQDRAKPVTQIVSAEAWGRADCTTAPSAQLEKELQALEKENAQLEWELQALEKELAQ
- T1 sequence (main, as listed by the source, chain 2 of 2): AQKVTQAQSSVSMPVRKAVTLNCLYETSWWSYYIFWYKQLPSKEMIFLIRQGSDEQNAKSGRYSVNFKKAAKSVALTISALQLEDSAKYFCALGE
- assay_protocol: DELFIA ELISA, coated antigen;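 note: binding of antibody supernatants or protein-A purified antibodies to plate-coated antigen (3 µg/ml recombinant TCR or BSA), 1 h incubation at room temperature, DELFIA readout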
Answers are plain numbers, in FU.

| binder | DELFIA ELISA response (FU) |
| --- | --- |
| G4_16 (antibody, human IgG1, V domains shown, also called 1248_P02_D10; clone G4_16) VH: EVQLLESGAEVKKPGASVKVSCKASGYTFTSYGISWVRQAPGQGLEWMGWISAYNGNTNYAQKLQGRVTMTTDTSTSTAYMELRSLRSDDTAVYYCARDYGDFYGMDVWGQGTLVTVSS VL: SQSVLTQPPSASGSPGQSVTFSCTGTSSDIGAFNSVSWYQQHPGKAPKLLIYEITKRPSGVPDRFSGSKSGNTASLTISVLQAEDEADYYCTSYAGSNTLIFGGGTKVTVLG | 178000 |
| G4_3 (antibody, human IgG1, V domains shown, also called 1139_P01_A04; G4_03) VH: EVQLVESGGGLVQPGGSLRLSCAASGFTFSSYSMNWVRQAPGKGLEWVSSISSSSSYIYYADSVKGRFTISRDNSKNTLYLQMNSLRAEDTAVYYCARGGWLYDYWGQGTLVTVSS VL: DIQMTQSPSSLSASVGDRVTITCQASQDISNYLNWYQQKPGKAPKLLIYDASNLETGVPSRFSGSGSGTDFTLTISSLQPEDFATYFCQQSYSTPQTFGQGTKVDIKR | 213000 |

Lab note: each binder below needs its DELFIA ELISA response (FU) filled in.
1. G4_22 (antibody, human IgG1, V domains shown, also called clone G4_22) VH: QVQLVESGGGLVQPGGSLRLSCAASGFTFSTYAMSWVRQAPGKGLEWVSTVSGSGGTTYYADSVKGRFTISRDNSKNTLYLQMNSLRAEDTAVYYCAKDSTAVTDWFDPWGRGTLVTVSS VL: DIQMTQSPSSLSASVGDRVTITCQASQDISNYLNWYQQKPGKAPKLLIYAASSLQSGVPSRFSVSGSGTDFTLTISNLQPEDFATYYCQQSYSIPWTFGQGTKVEIKR
2. G4_14 (antibody, human IgG1, V domains shown, also called clone G4_14) VH: EVQLVQSGAEVKKPGESLRISCKGSGYSFTSYWISWVRQMPGKGLEWMGRIDPSDSYTNYSPSFPGHVTISADKSISTAYLQWSSLKASDTAMYYCAADTAHGMDVWGRGTLVTVSS VL: SNFMLTQPHSVSESPGKTVTISCTRSRGSIAGNYVHWYQQRPGRAPTTVIYRDKERPSGVPDRISGSIDSSSNSASLTISGLKTEDEADYYCQSYDSSTHVVFGGGTKLTVLG

-- reply
[109000, 208000]

meta.source: patent US20230090901A1
